Attribution: PubChem BioAssay (NCATS)

Test system: Dd2
Experiment: qHTS profiling for inhibitors of Plasmodium falciparum proliferation (AID 504749); further: nearly all actives have a fitted effect of over 60% in size; further: potency means the concentration at half of the fitted maximal effect
Details: P. falciparum in erythrocytes, SYBR Green DNA, 72 h; series mostly up to 28.7 µM
Results filed as inconclusive are left out. The source made the active and inactive calls. The call rests on the fitted dose curve; in most records, active means well fitted inhibition curve with a large enough effect; inconclusive means small, poorly fitted or top-dose-only effect; inactive means flat fitted curve, though single readings scatter.
ASSAY_ENDPOINT: Potency

Solved cases (4 shown):
• O=C(O)/C=C/C(=O)Nc1ccc(S(=O)(=O)Nc2nccs2)cc1 = inactive
• CCN(CC)CCCC(C)Nc1cc(/C=C/c2ccccc2Cl)nc2cc(Cl)ccc12 (stereo not given) = 2.24 µM (active)
• CC/C=C\C/C=C\C/C=C\C/C=C\C/C=C\CCCC(=O)O = inactive
• C=C(C)C1CC=C(C)CC1 (stereo not given) = inactive

Please give the measured Potency for this molecule: "CC/C=C\C/C=C\C/C=C\C/C=C\C/C=C\C/C=C\CCC(=O)O"
inactive

Which Potency value is on record for "O=P(O)(O)OC[C@H](O)CO" ?
inactive

Consider the molecule shown here: "CO/N=C(\C(=O)N[C@@H]1C(=O)N2C(C(=O)[O-])=C(C[n+]3cccc4c3CCC4)CS[C@H]12)c1csc(N)n1" What is its recorded Potency?
inactive

Bench note: what Potency did CN1CCCC(CN2c3ccccc3Sc3ccccc32)C1 (stereo not given) show?
4.47 µM (active)

I'd like to know its Potency. The molecule in question is "FCOC(C(F)(F)F)C(F)(F)F"
inactive

// query Potency value for entry "CC(=O)N=c1sc(S(N)(=O)=O)nn1C"
inactive
